The following compounds were reported with IC50 values on Proto-oncogene tyrosine-protein kinase receptor Ret (Homo sapiens, UniProt P07949) in different studies.
Sequence (P07949 whole entry): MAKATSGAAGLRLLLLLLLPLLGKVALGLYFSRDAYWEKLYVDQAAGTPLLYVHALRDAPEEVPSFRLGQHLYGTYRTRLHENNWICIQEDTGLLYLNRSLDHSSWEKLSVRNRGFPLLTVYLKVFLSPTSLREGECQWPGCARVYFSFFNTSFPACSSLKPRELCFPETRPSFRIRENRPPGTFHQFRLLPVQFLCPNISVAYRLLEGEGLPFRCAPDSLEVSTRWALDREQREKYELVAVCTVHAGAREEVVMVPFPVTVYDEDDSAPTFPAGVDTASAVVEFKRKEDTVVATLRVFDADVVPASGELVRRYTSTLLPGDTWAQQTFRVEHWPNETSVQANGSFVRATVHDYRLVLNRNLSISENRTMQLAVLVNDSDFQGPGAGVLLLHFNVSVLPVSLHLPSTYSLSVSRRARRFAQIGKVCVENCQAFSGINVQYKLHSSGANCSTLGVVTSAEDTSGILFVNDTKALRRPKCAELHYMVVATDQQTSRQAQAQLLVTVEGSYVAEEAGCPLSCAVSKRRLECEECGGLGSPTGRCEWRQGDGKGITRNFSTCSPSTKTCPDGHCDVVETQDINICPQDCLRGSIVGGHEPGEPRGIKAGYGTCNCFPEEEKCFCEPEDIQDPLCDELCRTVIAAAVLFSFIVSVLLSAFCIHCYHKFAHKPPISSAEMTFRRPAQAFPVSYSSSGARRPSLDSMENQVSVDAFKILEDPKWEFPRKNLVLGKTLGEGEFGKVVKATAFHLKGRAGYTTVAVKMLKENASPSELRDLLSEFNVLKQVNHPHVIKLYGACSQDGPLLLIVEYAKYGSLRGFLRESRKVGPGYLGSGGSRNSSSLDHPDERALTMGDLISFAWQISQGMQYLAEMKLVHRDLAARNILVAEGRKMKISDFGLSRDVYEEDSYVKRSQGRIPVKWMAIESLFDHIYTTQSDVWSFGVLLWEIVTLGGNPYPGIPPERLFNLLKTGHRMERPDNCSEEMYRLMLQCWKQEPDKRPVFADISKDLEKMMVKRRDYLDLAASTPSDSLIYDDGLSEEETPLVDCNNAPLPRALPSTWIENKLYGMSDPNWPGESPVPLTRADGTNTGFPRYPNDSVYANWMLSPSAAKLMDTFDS
Give bare numbers, in µM.

[
  {
    "Smiles record": "CNC(=O)[C@H](NC(=O)Cc1cccc(O[C@H]2CCc3cc(-c4cncnc4)ccc32)c1)C1CCCCC1",
    "Measured target": "Proto-oncogene tyrosine-protein kinase receptor Ret (Homo sapiens, UniProt P07949)",
    "IC50 (µM)": 0.9
  },
  {
    "Smiles record": "Cn1cc(-c2cc3ncccc3c(-c3ccc(N4CC5CC(C4)N5Cc4ccc(Cl)nc4)nc3)n2)cn1",
    "Measured target": "Proto-oncogene tyrosine-protein kinase receptor Ret (Homo sapiens, UniProt P07949)",
    "IC50 (µM)": 0.0098
  },
  {
    "Smiles record": "O=C(O)Cc1cccc(O[C@H]2CCc3cc(-c4cnc(Nc5ccccc5)nc4)ccc32)c1",
    "Measured target": "Proto-oncogene tyrosine-protein kinase receptor Ret (Homo sapiens, UniProt P07949)",
    "IC50 (µM)": 2.3
  },
  {
    "Smiles record": "COc1ccc(CN2C3CC2CN(c2ccc(-c4nc(-c5cnn(C)c5)cc5ncccc45)cn2)C3)cn1",
    "Measured target": "Proto-oncogene tyrosine-protein kinase receptor Ret (Homo sapiens, UniProt P07949)",
    "IC50 (µM)": 0.0038
  },
  {
    "Smiles record": "Cn1cc(-c2ccc3c(c2)ncn3-c2ccc(CC(=O)Nc3cc(C(C)(C)C)on3)cc2)cn1",
    "Measured target": "Proto-oncogene tyrosine-protein kinase receptor Ret (Homo sapiens, UniProt P07949)",
    "IC50 (µM)": 0.001
  }
]

Would you be so kind as to report IC50 for each listed record?
1. CNC(=O)[C@H](Cc1c[nH]cn1)NC(=O)Cc1cccc(O[C@H]2CCc3cc(-c4cnc(Nc5ccccc5)nc4)ccc32)c1
2. COc1ccc(CN2C3CC2CN(c2ccc(-c4cccc5nccnc45)cn2)C3)cn1

[1.1, 0.172]
